Test system: OVCAR-5 complex spheroids, viability
ASSAY_NOTES: Anticancer human tumor OVCAR-5 cell line growth inhibition;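 also: spheroids exposed to agents for seven days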;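 as to viability, T/C: 100% = DMSO vehicle control wells viability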
SETTINGS: second compound 3.16 µM; first compound 10 µM; stronger effect = lower value
PARAMETER_MEASURED: viability, T/C (%)
Reply numerically in %, unit not repeated.

Past entries and their recorded results:
- COMPOUND: "CC1(C)CCC(CN2CCN(c3ccc(C(=O)NS(=O)(=O)c4ccc(NCC5CCOCC5)c([N+](=O)[O-])c4)c(Oc4cnc5[nH]ccc5c4)c3)CC2)=C(c2ccc(Cl)cc2)C1 + NC1CC1c1ccc(-c2cccc(O)c2)cc1"
  viability, T/C (%): 35.7
- COMPOUND: "COc1ccc([C@@H](O)c2cc(-c3ncnc4cc(N5CCOCC5)ccc34)c(F)cc2Cl)nn1 + NC1CCC(NC2CC2c2ccccc2)CC1"
  viability, T/C (%): 26.1
- COMPOUND: "O=C(c1cc(Cc2n[nH]c(=O)c3ccccc23)ccc1F)N1CCN(C(=O)C2CC2)CC1 + NC1CC1c1ccc(-c2cccc(O)c2)cc1"
  viability, T/C (%): 65.5
- COMPOUND: "CC(C)c1c(-c2ccccc2)nc2c(C#N)c[nH]n2c1=O + NC1CC1c1ccc(-c2cccc(O)c2)cc1"
  viability, T/C (%): 98.9
- COMPOUND: "CC1COCCN1c1cc(C2(S(C)(=N)=O)CC2)nc(-c2ccnc3[nH]ccc23)n1 (stereo unspecified) + NC1CC1c1ccc(-c2cccc(O)c2)cc1"
  viability, T/C (%): 24.8

Check the records and state viability, T/C for CC1(C)CCC(CN2CCN(c3ccc(C(=O)NS(=O)(=O)c4ccc(NCC5CCOCC5)c([N+](=O)[O-])c4)c(Oc4cnc5[nH]ccc5c4)c3)CC2)=C(c2ccc(Cl)cc2)C1 + NC1CCC(NC2CC2c2ccccc2)CC1
23.8

---

System: OVCAR-5 complex spheroids, viability
ASSAY_NOTES: Anticancer human tumor OVCAR-5 cell line growth inhibition;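 also: spheroids exposed to agents for seven days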;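 as to viability, T/C: 100% = DMSO vehicle control wells viability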
SETTINGS: second compound 0.1 µM; first compound 0.1 µM; stronger effect = lower value
PARAMETER_MEASURED: viability, T/C (%)
Reply numerically in %, unit not repeated.

Past entries and their recorded results:
- COMPOUND: "CC1(C)CCC(CN2CCN(c3ccc(C(=O)NS(=O)(=O)c4ccc(NCC5CCOCC5)c([N+](=O)[O-])c4)c(Oc4cnc5[nH]ccc5c4)c3)CC2)=C(c2ccc(Cl)cc2)C1 + NC1CC1c1ccc(-c2cccc(O)c2)cc1"
  UNITS_SYMBOL: "%"
  viability, T/C: 97.3
- COMPOUND: "COc1cc(Nc2ncc3c(n2)-c2ccc(Cl)cc2C(c2c(F)cccc2OC)=NC3)ccc1C(=O)O + NC1CC1c1ccc(-c2cccc(O)c2)cc1"
  UNITS_SYMBOL: "%"
  viability, T/C: 47.3

Lab note: next compound to report on.
# return viability, T/C for CC(C)c1c(-c2ccccc2)nc2c(C#N)c[nH]n2c1=O + NC1CCC(NC2CC2c2ccccc2)CC1 , test system: OVCAR-5 complex spheroids, viability
124

---

Test system: OVCAR-5 complex spheroids, viability
ASSAY_NOTES: Anticancer human tumor OVCAR-5 cell line growth inhibition;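 also: spheroids exposed to agents for seven days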
SETTINGS: curve of first compound; second compound 0.316 µM
PARAMETER_MEASURED: pIC50
Entry type: numeric. Quantity: pIC50, the -log10 of concentration in molar units.

- MOLECULE: "CC(C)CC(NC(=O)C(Cc1ccccc1)NC(=O)c1cnccn1)B(O)O (stereo not drawn) + NC1CC1c1ccc(-c2cccc(O)c2)cc1"
  VALUE_OBSERVED: 8.18

Lab note: next molecule to report on.
Check the records and state pIC50 for CC1(C)CCC(CN2CCN(c3ccc(C(=O)NS(=O)(=O)c4ccc(NCC5CCOCC5)c([N+](=O)[O-])c4)c(Oc4cnc5[nH]ccc5c4)c3)CC2)=C(c2ccc(Cl)cc2)C1 + NC1CCC(NC2CC2c2ccccc2)CC1
5.15
